B1: library; a variant is named by its letters at N, in order (parent)
chain: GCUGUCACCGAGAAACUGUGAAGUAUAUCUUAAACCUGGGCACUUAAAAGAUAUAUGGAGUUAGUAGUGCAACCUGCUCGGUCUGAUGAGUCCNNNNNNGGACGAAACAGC

- Variants of: B1
- method summary: normalized RNA/DNA level with ligand (relative to sTRSVctl = 100) (log10 (% of sTRSVctl)); HEK293T; ligand: cyclic di-GMP (c-di-GMP-II aptamer); ligand concentration (+) RNA-Seq: 1 mM; higher = less ribozyme self-cleavage, higher mRNA level
- protocol conditions: reporter: mCherry (pCS4076), ligand present: yes
readout name: normalized RNA/DNA level with ligand (log10)

change | observed measurement
UGAUUU | 1.86
AUUCAU | 1.84
GCCAUA | 1.72
UGGCAG | 1.93
GUCUCG | 1.88
CCUGAA | 1.61
CGAGCC | 1.88
AAUAUC | 1.81
AUAUUA | 1.76
CAUUAC | 1.79
UGCGUA | 1.81
UGGUUC | 1.83
CUUGAU | 1.82
ACGUUA | 1.65
UCACGU | 1.79
CUUUUA | 1.66
AAGACA | 1.74
AAGAAG | 1.66
GAAAAU | 1.74
GGUCGC | 1.87
CAACGG | 1.77
AUGGCU | 1.86
ACUCGA | 1.73
GAGACU | 1.87
GGUUGA | 1.74
GCACGA | 1.65
UGCAAA | 1.84
UCUGGA | 1.79
CGUGUU | 1.78
ACACAU | 1.67
AUCUCG | 1.87
GCCGUC | 1.72
CGUAAA | 1.34
ACGGUG | 1.74
CGCUUA | 1.46
